- Target System: GST-KIAA1634 PDZ domain 5 (Homo sapiens (Human)), Q5TCQ9
- Sequence (Q5TCQ9 other isoform, or with tags, fused parts or gaps): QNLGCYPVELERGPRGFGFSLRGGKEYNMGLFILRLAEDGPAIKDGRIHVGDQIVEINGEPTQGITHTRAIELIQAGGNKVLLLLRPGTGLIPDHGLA
- Experiment Summary: G' assay; also: key of the grades not given here
Classification values for the binders below.
Readout Kind: Classification (A450 class)

{"Binder": "TQGFPGPATWRRISSLESEV (modifications not checked) [NMDA Glutamate Receptor 2C (cysteine-free)]", "Unit Info": "A450 class", "Recorded Result": 1}
{"Binder": "VPGALDYAAFSSALYGESDL (modifications not checked) [a-actinin 2]", "Unit Info": "A450 class", "Recorded Result": 5}
{"Binder": "PIPAGGCTFSGIFPTLTSPL (modifications not checked) [KIA 1481]", "Unit Info": "A450 class", "Recorded Result": 1}
{"Binder": "PYSELNYETSHYPASPDSWV (modifications not checked) [catenin - delta 2]", "Unit Info": "A450 class", "Recorded Result": 3}
{"Binder": "ELLQFCRTPNPALKNGQYWV (modifications not checked) [CSPG4 (chondroitin sulfae proteoglycan 4, melanoma-associated)]", "Unit Info": "A450 class", "Recorded Result": 2}
{"Binder": "VHDAESSDEDGYDWGPATDL (modifications not checked) [zona occludens 3 (ZO-3) PL peptide]", "Unit Info": "A450 class", "Recorded Result": 1}
{"Binder": "ARHRVTSYTSSSVNVSSNL (modifications not checked) [IL-8RA]", "Unit Info": "A450 class", "Recorded Result": 1}
